Overview of recorded TC50 (50% cytotoxic concentration), Influenza A/hanfang/359/95 for various compounds
Tested on: MDCK cells
Experiment: Cytotoxicity in MDCK cells (CPE)
Format: cell-based, Canine
Conditions: 48 h, Reed & Muench
Give just the number in µM; leave the unit off.

{"compound": "O=[N+]([O-])c1ccc(CNc2ccc3ncsc3c2)cc1 [3d, Benzothiazol-6-yl-(4-nitrobenzyl)-amine]", "experimental result": 272.01}
{"compound": "COc1ccccc1/C=C/CNc1ccc2ncsc2c1 [3f]", "experimental result": 21.66}
{"compound": "Clc1ccc(CNc2ccc3ncsc3c2)s1 [3i]", "experimental result": 27.42}
{"compound": "c1csc(CNc2ccc3ncsc3c2)c1 [3h]", "experimental result": 78.14}
{"compound": "COc1cc(CNc2ccc3ncsc3c2)cc(Br)c1O [3a]", "experimental result": 21.08}

State, in one line, measured TC50 (50% cytotoxic concentration), Influenza A/hanfang/359/95 of C(=C\c1ccccc1)/CNc1ccc2nc[nH]c2c1 [4a]
14.84

Supply TC50 (50% cytotoxic concentration), Influenza A/hanfang/359/95 value. Item: c1cnc2c(CNc3ccc4ncoc4c3)cccc2c1 [2g]
56.04

----------
Listed compounds paired with reported TC50 (50% cytotoxic concentration), HBV
Tested on: HepG2.2.15 cells
Assay: Cytotoxicity in HepG2.2.15 cells (CPE)
Format: cell-based, human
Conditions: 3 + 3 days
Respond numerically; units are µM and should not be typed.

Examples with their reported TC50 (50% cytotoxic concentration), HBV follow.
{"chem smiles": "O=[N+]([O-])c1ccc(CNc2ccc3ncoc3c2)cc1", "experimental result": 16.67}
{"chem smiles": "Clc1ccc(CNc2ccc3cc[nH]c3c2)cc1", "experimental result": 8.02}

Kindly review the next compound as well.
Consider the compound COc1cccc(CNc2ccc3ncsc3c2)c1O and give its recorded TC50 (50% cytotoxic concentration), HBV.
57.74

----------
Tested on: Influenza A/hanfang/359/95
Assay: microbe, parasite or virus in culture
Format: cell-based
Details: Influenza A virus, MDCK
pIC50: −log10 of the molar value.
Answer not met if pIC50 is under 5, and met if it is 5 or more.

Example entries begin here.
{"compound": "C(=C\\c1ccccc1)/CNc1ccc2nc[nH]c2c1 [4a]", "category label": "met"}
{"compound": "COc1ccccc1/C=C/CNc1ccc2ncsc2c1 [3f]", "category label": "met"}
{"compound": "Clc1ccc(CNc2ccc3ncsc3c2)s1 [3i]", "category label": "met"}

Tell me whether pIC50 is at least 5 here: c1csc(CNc2ccc3ncoc3c2)c1 [2d]
not met

Check this compound for pIC50 at or above 5: CCOC(=O)C1=C[C@@H](OC(CC)CC)[C@H](NC(C)=O)[C@@H](N)C1 [Oseltamivir, oseltamivir, reference compound]
not met

----------
System: Huh7.5 cells
Assay: Cytotoxicity in Huh7.5 cells (MTT)
Type: cell-based, human
Details: 96 h
// values below are reported TC50 (50% cytotoxic concentration), HCV
Give the value in µM but do not write µM after it.

Sample answers from the record:
{"compound": "COc1ccccc1/C=C/CNc1ccc2ncsc2c1 [3f]", "TC50 (50% cytotoxic concentration), HCV / µM": 54.99}
{"compound": "c1cnc2c(CNc3ccc4ncoc4c3)cccc2c1 [2g]", "TC50 (50% cytotoxic concentration), HCV / µM": 27.57}
{"compound": "C(=C\\c1ccccc1)/CNc1ccc2ncoc2c1 [2c]", "TC50 (50% cytotoxic concentration), HCV / µM": 105.44}
{"compound": "COc1cc(CNc2ccc3ncoc3c2)cc(Br)c1O [2a]", "TC50 (50% cytotoxic concentration), HCV / µM": 89.63}
{"compound": "C(=C\\c1ccccc1)/CNc1ccc2nc[nH]c2c1 [4a]", "TC50 (50% cytotoxic concentration), HCV / µM": 79.04}

We now examine a further compound.
# return recorded TC50 (50% cytotoxic concentration), HCV for input c1csc(CNc2ccc3ncoc3c2)c1 [2d]
136.53
